Where do these numbers come from? They come from the RepoRT retention time repository.

- Assay Details: HILIC, Waters ACQUITY UPLC BEH Amide, 100 × 2.1 mm, 1.7 µm; A: water + 0.125% formic acid + 10 mM ammonium formate; B: 5% water + 95% acetonitrile + 0.125% formic acid + 10 mM ammonium formate; gradient (min/%B) 0/100 2/100 7.7/70 9.5/40 10.25/30 12.75/100 17/100
- Cond: stereoisomer not certain
Assay Endpoint: LC retention time

>  <Compound>
COc1cc(C=Cc2ccc(O)cc2)cc(OC)c1 [Pterostilbene]

>  <Assay Endpoint>
LC retention time

>  <Observed Value>
0.98 min

$$$$
>  <Compound>
CC1CCCC(O)CCCCCc2cc(O)cc(O)c2C(=O)O1 (centres undefined) [Zeranol]

>  <Assay Endpoint>
LC retention time

>  <Observed Value>
1.11 min

$$$$
>  <Compound>
COc1cc(C=CC(=O)O)cc(OC)c1O [Sinapic acid]

>  <Assay Endpoint>
LC retention time

>  <Observed Value>
1.41 min

$$$$
>  <Compound>
Cc1sc(N)c(C(=O)c2cccc(C(F)(F)F)c2)c1C

>  <Assay Endpoint>
LC retention time

>  <Observed Value>
0.94 min

$$$$
>  <Compound>
CCOc1cc(N)c(Cl)cc1C(=O)NCC1CN(Cc2ccc(F)cc2)CCO1 (centres undefined) [Mosapride]

>  <Assay Endpoint>
LC retention time

>  <Observed Value>
1.24 min

$$$$
>  <Compound>
CC(C)c1nc(CN(C)C(=O)NC(C(=O)NC(Cc2ccccc2)CC(O)C(Cc2ccccc2)NC(=O)OCc2cncs2)C(C)C)cs1 (centres undefined) [Ritonavir]

>  <Assay Endpoint>
LC retention time

>  <Observed Value>
1.15 min

$$$$

Entry CN(C)CCOC(c1ccccc1)c1ccccc1 [Diphenhydramine] : reported LC retention time = ? 2.15 min

Which LC retention time value belongs to NCCCCN [Putrescine] ? 9.3 min

Name the recorded LC retention time for CC1COc2c(C3(N)CC3)c(F)cc3c(=O)c(C(=O)O)cn1c23 (centres undefined) [Pazufloxacin] . 2.49 min

* * *

- Assay Details: HILIC, Waters ACQUITY UPLC BEH Amide, 100 × 2.1 mm, 1.7 µm; A: water + 0.125% formic acid + 10 mM ammonium formate; B: 5% water + 95% acetonitrile + 0.125% formic acid + 10 mM ammonium formate; gradient (min/%B) 0/100 2/100 7.7/70 9.5/40 10.25/30 12.75/100 17/100
- Cond: stereoisomer not certain
Assay Endpoint: LC retention time (min)
Supply the numeric figure in min, leaving out any unit text.

Some solved entries appear below for comparison.
>  <Compound>
C#CCN(C)C(C)Cc1ccccc1 (centres undefined)

>  <Reading Unit>
min

>  <Observed Value>
1.5

$$$$
>  <Compound>
CC12CCC3C(CCC4CC(O)CCC43C)C1CCC2=O (centres undefined)

>  <Reading Unit>
min

>  <Observed Value>
4.62

$$$$
>  <Compound>
CCOC(=O)N1CCC(=C2c3ccc(Cl)cc3CCc3cccnc32)CC1

>  <Reading Unit>
min

>  <Observed Value>
1.11

$$$$
>  <Compound>
COc1cc(C(=O)NS(=O)(=O)c2ccccc2C)ccc1Cc1cn(C)c2ccc(NC(=O)OC3CCCC3)cc12

>  <Reading Unit>
min

>  <Observed Value>
1

$$$$
>  <Compound>
O=C1CCC(=O)CC1

>  <Reading Unit>
min

>  <Observed Value>
1.15

$$$$
>  <Compound>
COc1c2ccoc2cc2oc(=O)ccc12

>  <Reading Unit>
min

>  <Observed Value>
1.07

$$$$

Suppose we examine the compound Nc1ncnc2c1ncn2C1OC2COP(=O)(O)OC2C1O (centres undefined) [Adenosine 3',5'-cyclic monophosphate] ; what LC retention time value has been reported? 7.62

Given CN(CCO)CC(O)Cn1cnc2c1c(=O)n(C)c(=O)n2C (centres undefined) , state its recorded LC retention time. 6.01

I have this compound here, Cn1nnc2c(C(N)=O)ncn2c1=O [Temozolomide] , and I need its recorded LC retention time. 1.33

* * *

- Assay Details: HILIC, Waters ACQUITY UPLC BEH Amide, 100 × 2.1 mm, 1.7 µm; A: water + 0.125% formic acid + 10 mM ammonium formate; B: 5% water + 95% acetonitrile + 0.125% formic acid + 10 mM ammonium formate; gradient (min/%B) 0/100 2/100 7.7/70 9.5/40 10.25/30 12.75/100 17/100
- Cond: stereoisomer not certain
// boundary case: LC retention time equal to 5 min maps to 0; strictly smaller maps to 1

Before answering, review these 4 worked examples.
>  <Molecule>
COc1ccc(CC(C)NCC(O)c2ccc(O)c(NC=O)c2)cc1 (stereo not given)

>  <Qualitative Label>
0

$$$$
>  <Molecule>
c1ccc2scnc2c1

>  <Qualitative Label>
1

$$$$
>  <Molecule>
CCC(C)C(NC)C(=O)O (stereo not given)

>  <Qualitative Label>
0

$$$$
>  <Molecule>
CC(C)(N)Cc1ccccc1

>  <Qualitative Label>
0

$$$$

// switching to the query molecule
State whether 5 min exceeds LC retention time recorded for CCN1CCCC1CNC(=O)c1cc(S(N)(=O)=O)ccc1OC (stereo not given) [Levosulpiride] . 1

* * *

- Assay Details: HILIC, Waters ACQUITY UPLC BEH Amide, 100 × 2.1 mm, 1.7 µm; A: water + 0.125% formic acid + 10 mM ammonium formate; B: 5% water + 95% acetonitrile + 0.125% formic acid + 10 mM ammonium formate; gradient (min/%B) 0/100 2/100 7.7/70 9.5/40 10.25/30 12.75/100 17/100
- Cond: stereoisomer not certain
Assay Endpoint: LC retention time

Known results for compounds:
>  <Compound>
O=C(NCCN1CCOCC1)c1ccc(Cl)cc1 [Moclobemide]

>  <LC retention time>
2.03 min

$$$$
>  <Compound>
Nc1ccccc1O [2-Aminophenol]

>  <LC retention time>
1.22 min

$$$$
>  <Compound>
COC1C(O)C(CO)OC1n1cc(C)c(=O)[nH]c1=O (stereo not given) [2'-O-Methyl-5-methyluridine]

>  <LC retention time>
1.75 min

$$$$
>  <Compound>
CC12CCC3C(CC=C4CC(O)CCC43C)C1CCC2=O (stereo not given) [Dehydroepiandrosterone]

>  <LC retention time>
1.03 min

$$$$
>  <Compound>
O=C(O)CNC(=O)OCc1ccccc1 [N-Benzyloxycarbonylglycine]

>  <LC retention time>
7.67 min

$$$$

Recorded LC retention time for CC=C1N(C)C(C)CC1(c1ccccc1)c1ccccc1 (stereo not given) [EDDP] , please? 1.9 min

Given Cc1cc(=O)oc2cc(O)ccc12 [4-Methylumbelliferone] , state its recorded LC retention time. 1.22 min

Could you tell me which LC retention time is on file for NCCc1c[nH]c2ccc(O)cc12 [Serotonin] ? 1.44 min

* * *

- Assay Details: HILIC, Waters ACQUITY UPLC BEH Amide, 100 × 2.1 mm, 1.7 µm; A: water + 0.125% formic acid + 10 mM ammonium formate; B: 5% water + 95% acetonitrile + 0.125% formic acid + 10 mM ammonium formate; gradient (min/%B) 0/100 2/100 7.7/70 9.5/40 10.25/30 12.75/100 17/100
- Cond: stereoisomer not certain
Assay Endpoint: LC retention time (min)
Give just the numeric value; min need not be written.

Record excerpt, results attached:
>  <Molecule>
CC(NC(C)(C)C)C(=O)c1cccc(Cl)c1 (centres undefined)

>  <Reading Unit>
min

>  <Observed Value>
2.22

$$$$
>  <Molecule>
O=c1cc(-c2ccccc2)oc2ccc(O)cc12 [6-Hydroxyflavone]

>  <Reading Unit>
min

>  <Observed Value>
1.26

$$$$

Name the recorded LC retention time for `COc1cc(-c2ccc(=O)[nH]n2)ccc1OC(F)F` . 1.19

Item `Cc1nc2n(c(=O)c1CCN1CCC(c3noc4cc(F)ccc34)CC1)CCCC2` has what recorded LC retention time? 3.52

Find the recorded LC retention time belonging to `NCCc1cnc[nH]1` and report it. 8.29

What LC retention time value was documented for this molecule, NC(CCC(=O)NC(Cc1ccc(O)cc1)C(=O)O)C(=O)O (centres undefined) ? 8.52

Dear colleague, I am looking for the recorded LC retention time of the following molecule: CCC1(O)CC2CN(CCc3c([nH]c4ccccc34)C(C(=O)OC)(c3cc4c(cc3OC)N(C)C3C(O)(C(N)=O)C(O)C5(CC)C=CCN6CCC43C65)C2)C1 (centres undefined) 5.76

* * *

- Assay Details: HILIC, Waters ACQUITY UPLC BEH Amide, 100 × 2.1 mm, 1.7 µm; A: water + 0.125% formic acid + 10 mM ammonium formate; B: 5% water + 95% acetonitrile + 0.125% formic acid + 10 mM ammonium formate; gradient (min/%B) 0/100 2/100 7.7/70 9.5/40 10.25/30 12.75/100 17/100
- Cond: stereoisomer not certain
Criterion: LC retention time strictly under 3 min. Met: satisfied. Not met: not satisfied.

Solved entries (count: 3):
>  <Molecule>
C=CC(C)(O)CCC=C(C)C (stereo not given) [Linalool]

>  <Qualitative Label>
satisfied

$$$$
>  <Molecule>
CNC[C@H](N)C(=O)O [beta-N-Methylaminoalanine]

>  <Qualitative Label>
not satisfied

$$$$
>  <Molecule>
COc1ccc(Cc2nccc3cc(OC)c(OC)cc23)cc1OC [Papaverine]

>  <Qualitative Label>
satisfied

$$$$

Now for a further molecule.
Input NC(CCC(=O)NC(CS)C(=O)O)C(=O)O (stereo not given) [gamma-Glutamyl-cysteine] ; condition: LC retention time strictly below 3 min. Does it hold? not satisfied
